Measured pIC50, listed per entry.
MEASURED TARGET: HLA-DR DRB5*0101 (DR51) (Homo sapiens, UniProt P01903+Q30154)
PROTOCOL DESCRIPTION: biochemical
Format: binding
REPORTED CONDITIONS: DRB5 *0101
Would you please state pIC50, meaning minus log10 of the concentration in mol/L, as a bare number?

CC[C@H](C)[C@H](NC(=O)[C@@H](N)CCCCN)C(=O)N[C@@H](Cc1ccccc1)C(=O)NCC(=O)N[C@@H](CO)C(=O)N[C@@H](CC(C)C)C(=O)N[C@@H](C)C(=O)N[C@@H](Cc1ccccc1)C(=O)N[C@@H](CC(C)C)C(=O)N1CCC[C@H]1C(=O)N[C@@H](CCC(=O)O)C(=O)N[C@@H](CO)C(=O)N[C@@H](Cc1ccccc1)C(=O)N[C@@H](CC(=O)O)C(=O)NCC(=O)N[C@@H](CC(=O)O)C(=O)N1CCC[C@H]1C(=O)N[C@@H](C)C(=O)O: 5.10

Prompt: State its pIC50 on HLA-DR DRB5*0101 (DR51) (Homo sapiens, UniProt P01903+Q30154): CC[C@H](C)[C@H](NC(=O)[C@H](CO)NC(=O)[C@H](CC(C)C)NC(=O)[C@@H](NC(=O)[C@H](CC(C)C)NC(=O)[C@H](CC(=O)O)NC(=O)[C@H](Cc1c[nH]c2ccccc12)NC(=O)[C@@H](N)CCSC)C(C)C)C(=O)N[C@@H](C)C(=O)N[C@@H](CC(C)C)C(=O)N[C@@H](CO)C(=O)N[C@H](C(=O)NCC(=O)N[C@@H](CS)C(=O)N[C@H](C(=O)O)[C@@H](C)O)C(C)C
Completion: 4.15

* * *

MEASURED TARGET: HLA-DR DRB1*0401 (DR4) (Homo sapiens, UniProt P01903+P01911, A100K/A169T/F76Y/I96L/K127E/L162R/M171V/N62H/P40V/Q125Y/R42H/S133A/S149N/S66Y/V115G/V209L/W38E)
PROTOCOL DESCRIPTION: biochemical
Assay type: binding
REPORTED CONDITIONS: DRB1 *0401
pIC50: −log10 of the molar value.
Please use YES whenever pIC50 is not below 7, and NO whenever it is.

CC[C@H](C)[C@H](NC(=O)CNC(=O)[C@H](CCCNC(=N)N)NC(=O)[C@H](CCCNC(=N)N)NC(=O)[C@H](Cc1ccc(O)cc1)NC(=O)[C@H](C)NC(=O)[C@H](Cc1ccc(O)cc1)NC(=O)[C@@H](N)CCC(=O)O)C(=O)N[C@@H](C)C(=O)N[C@@H](CCC(=O)O)C(=O)N[C@@H](C)C(=O)N[C@H](C(=O)NCC(=O)N[C@@H](CC(C)C)C(=O)N1CCC[C@H]1C(=O)O)C(C)C: NO

Prompt: API: above_or_equal(metric=pIC50, cutoff=7) for item CC(C)C[C@H](NC(=O)[C@H](CCC(=O)O)NC(=O)[C@H](CCCCN)NC(=O)[C@H](C)N)C(=O)N[C@@H](CCCCN)C(=O)N[C@@H](Cc1ccccc1)C(=O)N[C@H](C(=O)N[C@H](C(=O)N[C@@H](CC(C)C)C(=O)N[C@H](C(=O)N[C@@H](Cc1ccccc1)C(=O)N[C@@H](CCCNC(=N)N)C(=O)N[C@@H](Cc1c[nH]cn1)C(=O)NCC(=O)N[C@@H](CC(=O)O)C(=O)O)C(C)C)[C@@H](C)O)C(C)C
Completion: NO

Prompt: Param item: CC[C@H](C)[C@H](NC(=O)[C@H](CCC(N)=O)NC(=O)[C@@H](N)CCCNC(=N)N)C(=O)N[C@@H](Cc1ccc(O)cc1)C(=O)N[C@H](C(=O)N[C@@H](C)C(=O)N[C@@H](C)C(=O)N[C@@H](Cc1ccccc1)C(=O)N[C@H](C(=O)N[C@H](C(=O)N[C@@H](CCC(N)=O)C(=O)N[C@@H](C)C(=O)N[C@@H](C)C(=O)N[C@@H](C)C(=O)N[C@@H](CCC(=O)O)C(=O)O)C(C)C)[C@@H](C)O)C(C)C
Completion: YES

Prompt: Param item: CC[C@H](C)[C@H](NC(=O)[C@@H](NC(=O)[C@@H](N)CO)C(C)C)C(=O)N[C@@H](CC(C)C)C(=O)N[C@@H](CC(C)C)C(=O)NCC(=O)N[C@@H](CCCNC(=N)N)C(=O)N[C@@H](Cc1c[nH]cn1)C(=O)N[C@@H](CO)C(=O)N[C@@H](CC(C)C)C(=O)N[C@@H](Cc1ccccc1)C(=O)N[C@@H](Cc1c[nH]cn1)C(=O)N1CCC[C@H]1C(=O)N[C@@H](CCC(=O)O)C(=O)N[C@@H](CC(=O)O)C(=O)O [SVILLGRHSLFHPED]
Completion: NO
